Target: T1, IL-18 receptor (IL-18R) on HEK-Blue IL18R reporter cells (UniProt Q13478 19-541; O95256 20-599, limits assumed)
T1 sequence (looked up) 1: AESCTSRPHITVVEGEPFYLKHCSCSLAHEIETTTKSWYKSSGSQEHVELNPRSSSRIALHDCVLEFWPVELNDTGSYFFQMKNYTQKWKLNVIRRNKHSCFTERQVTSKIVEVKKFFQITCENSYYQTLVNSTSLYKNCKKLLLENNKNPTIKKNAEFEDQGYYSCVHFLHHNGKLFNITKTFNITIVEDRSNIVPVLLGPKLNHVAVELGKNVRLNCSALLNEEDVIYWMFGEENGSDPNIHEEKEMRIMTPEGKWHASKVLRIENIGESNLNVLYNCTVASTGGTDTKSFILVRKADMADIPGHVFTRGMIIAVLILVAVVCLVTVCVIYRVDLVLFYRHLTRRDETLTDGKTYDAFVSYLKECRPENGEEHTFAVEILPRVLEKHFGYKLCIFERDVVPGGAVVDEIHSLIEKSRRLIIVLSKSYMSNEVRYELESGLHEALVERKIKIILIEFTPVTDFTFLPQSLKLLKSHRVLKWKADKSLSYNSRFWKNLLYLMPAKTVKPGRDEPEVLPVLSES
T1 sequence (looked up) 2: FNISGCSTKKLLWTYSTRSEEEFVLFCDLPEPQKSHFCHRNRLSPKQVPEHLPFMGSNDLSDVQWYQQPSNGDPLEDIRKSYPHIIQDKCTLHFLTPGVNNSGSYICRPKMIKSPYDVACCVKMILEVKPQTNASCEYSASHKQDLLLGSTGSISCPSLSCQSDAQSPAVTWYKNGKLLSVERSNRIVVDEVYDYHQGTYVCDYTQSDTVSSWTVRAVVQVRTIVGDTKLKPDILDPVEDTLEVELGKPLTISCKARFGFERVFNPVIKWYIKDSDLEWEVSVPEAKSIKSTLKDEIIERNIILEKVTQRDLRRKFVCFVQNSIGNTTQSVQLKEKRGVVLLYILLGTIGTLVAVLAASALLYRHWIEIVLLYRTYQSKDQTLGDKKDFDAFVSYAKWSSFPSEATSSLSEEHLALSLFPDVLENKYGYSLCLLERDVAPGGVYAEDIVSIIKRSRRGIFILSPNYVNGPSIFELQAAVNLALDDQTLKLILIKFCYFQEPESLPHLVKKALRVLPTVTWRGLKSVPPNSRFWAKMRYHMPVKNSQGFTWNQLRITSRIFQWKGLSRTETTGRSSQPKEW
Assay: cell-based or functional assay
attribute-measured: EC50, HEK-Blue IL18R reporter (nM)
State the answer as a number, implicitly in nM.

1. IL-18 variant SEQ ID NO: 242 (N-terminal G, E6K, V11I, C38A, K53A, T63A, C76A, C127A) (ligand) GYFGKLKSKLSIIRNLNDQVLFIDQGNRPLFEDMTDSDARDNAPRTIFIISMYADSQPRGMAVAISVKCEKISTLSAENKIISFKEMNPPDNIKDTKSDIIFFQRSVPGHDNKMQFESSSYEGYFLAAEKERDLFKLILKKEDELGDRSIMFTVQNED
1.68

Tell me the measured EC50, HEK-Blue IL18R reporter of IL-18 variant SEQ ID NO: 209 (F2A, V11I, C38A, K53A, C76A, C127A) (ligand) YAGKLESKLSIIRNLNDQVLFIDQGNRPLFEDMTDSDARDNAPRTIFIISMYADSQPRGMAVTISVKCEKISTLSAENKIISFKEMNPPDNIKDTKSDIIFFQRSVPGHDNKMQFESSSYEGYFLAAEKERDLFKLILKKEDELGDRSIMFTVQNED , please.
7.28

Tell me the measured EC50, HEK-Blue IL18R reporter of IL-18 variant SEQ ID NO: 215 (V11I, E31A, D37A, C38A, K53A, C76A, C127A) (ligand) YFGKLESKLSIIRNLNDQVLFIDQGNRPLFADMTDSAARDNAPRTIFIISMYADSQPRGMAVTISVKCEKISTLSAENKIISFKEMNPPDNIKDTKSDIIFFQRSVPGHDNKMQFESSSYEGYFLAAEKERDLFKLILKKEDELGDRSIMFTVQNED , please.
11.9

Source: patent US20250186594A1
